experiment notes: endothelial E-selectin expression blockers – imaging, HUVEC, immunofluorescence, MLSMR starter and 10KST1 sets, primary screen (AID 487);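 for inhibition: signal is fraction of cell area covered by stained E-selectin grains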
experimental parameters: HUVEC TNFalpha-induced E-selectin immunofluorescence imaging, at 2 µM; stronger effect = higher value
The following compounds are shown together with reported inhibition values.
Express the result in % but write the number alone.

[[record]]
compound = "COc1ccc(-c2cc(O)cc(O)c2)cc1"
result_units = "%"
measured_value = -25

[[record]]
compound = "Cc1cc(NCCN2CCCCC2)n2c(nc3ccccc32)c1C#N"
result_units = "%"
measured_value = -2

[[record]]
compound = "CCOc1ccc(C2CC(c3cccc(OC)c3)Nc3nc(N)nn32)cc1 (centres undefined)"
result_units = "%"
measured_value = 36.3

[[record]]
compound = "Cc1ccccc1N1OC2C(=O)N(c3ccc(F)cc3)C(=O)C2C1c1ccccn1 (centres undefined)"
result_units = "%"
measured_value = -36.7

[[record]]
compound = "CC(Oc1ccc(Cl)cc1Cl)C(=O)Nc1ncccn1 (centres undefined)"
result_units = "%"
measured_value = 51.5


Shift focus to the following entry.
Requested read-out: inhibition. Entry: CCc1nc(N)c(C#N)c(-c2ccc(OC)c(OC)c2)c1C
-37

----------
The following molecules are shown together with reported inhibition values.
experiment notes: endothelial E-selectin expression blockers – imaging, HUVEC, immunofluorescence, MLSMR starter and 10KST1 sets, primary screen (AID 487);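 for inhibition: signal is fraction of cell area covered by stained E-selectin grains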
experimental parameters: HUVEC TNFalpha-induced E-selectin immunofluorescence imaging, at 2 µM; stronger effect = higher value
Express the result in % but write the number alone.

[[record]]
molecule = "CS(=O)(=O)N(CC(=O)N1CCc2ccccc2C1)c1ccc2c(c1)OCO2"
quantity_name = "inhibition"
measured_value = 14.1


Requested read-out: inhibition. Entry: Clc1ccc2nc(N3CCCCC3)[nH]c2c1
-82.5

Requested read-out: inhibition. Entry: CCn1ncc(Cl)c1C(=O)Nc1ccncc1
-41

Requested read-out: inhibition. Entry: Cc1ccc(-n2c3c(cc(C(=O)NCCCN4CCOCC4)c2=O)C(=O)CC(C)(C)C3)cc1
-65.9

Requested read-out: inhibition. Entry: CCOC(=O)N1CCN(C(=O)c2c(-c3ccccc3)noc2C)CC1
-27.3

Requested read-out: inhibition. Entry: CCCCCc1c(C)nc(SCC(=O)O)[nH]c1=O
-31.8

Requested read-out: inhibition. Entry: CCOC(=O)Cc1cc(=O)n2[nH]c(C)c(-c3ccc(OC)cc3)c2n1
0.6

Requested read-out: inhibition. Entry: C/C=C/COC(=O)c1[nH]c2c(c1C)C(=O)CC(c1ccco1)C2 (configuration not stated)
-141

Requested read-out: inhibition. Entry: Cc1cc(=O)[nH]c(SCc2nc3ncccn3c2Br)n1
-32.2

Requested read-out: inhibition. Entry: C=CCN(C(=O)CNC(=O)c1ccco1)C(C(=O)NC1CCCCC1)c1ccccc1F (configuration not stated)
5.7

Requested read-out: inhibition. Entry: COc1ccc(C(=O)c2ccc(OC)c(N)c2)cc1N
-187

Requested read-out: inhibition. Entry: CCCNC(=O)NC(C(=O)OC)C12CC3CC(CC(C3)C1)C2 (configuration not stated)
-52.3

Requested read-out: inhibition. Entry: Cc1ccccc1-n1nnnc1SCC(=O)Nc1ccc(S(=O)(=O)N2CCCC2)cc1
-1

Requested read-out: inhibition. Entry: COC(=O)c1ccc2c(=O)n(CC3CCCO3)c(=S)[nH]c2c1 (configuration not stated)
-137

Requested read-out: inhibition. Entry: CC(C)(O)C#Cc1ccc(C(=O)N2CCN(C(=O)c3ccco3)CC2)cc1
45.3

Requested read-out: inhibition. Entry: CCn1cc(C(=O)NCC2CCCO2)c(=O)c2cc(S(=O)(=O)N(C)C3CCCCC3)ccc21 (configuration not stated)
-60.9

Requested read-out: inhibition. Entry: CC(=O)N1CCc2cc(Br)cc(S(=O)(=O)NCCCN3CCCC(C)C3)c21 (configuration not stated)
-170

Requested read-out: inhibition. Entry: COc1ccccc1CNC(=O)C1CCCN(S(=O)(=O)c2cnc[nH]2)C1 (configuration not stated)
-59.5

Requested read-out: inhibition. Entry: COc1ccc(OCc2nc(C#N)c(N3CCN(c4ccc(OC)cc4)CC3)o2)cc1
15.1

Requested read-out: inhibition. Entry: c1ccc(N2CCN(Cc3cn4cccnc4n3)CC2)cc1
-36.1

Requested read-out: inhibition. Entry: Cc1ccc(C(=O)Nc2ccc3c(c2)OCO3)cc1S(=O)(=O)N1CCCC1
14.2

Requested read-out: inhibition. Entry: COc1ccc(N(C)C(=O)CCS(=O)(=O)c2cccc3nonc23)c(OC)c1
-18.3

----------
The following compounds are shown together with reported inhibition values.
experiment notes: inhibitors of TNFa-induced NFkB p65 translocation, primary screen, imaging, HUVEC, MLSMR starter and 10KST1 sets (AID 438);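 note: compound added about 3h40 before a 20 min TNFalpha stimulation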;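 for inhibition: signal is the nuclear over cytoplasmic p65 intensity ratio per well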
experimental parameters: HUVEC TNFa-induced p65 nuclear translocation; at 2 µM, stronger effect = higher value, 0% TNFa-plus-vehicle, 100% no-TNFa wells
Express the result in % but write the number alone.

[[record]]
compound = "C=CCn1c(SCC(=O)c2cc(C)n(C(C)COC)c2C)nc2sc(C)c(C)c2c1=O (stereo not drawn)"
measured_value = 3


Requested read-out: inhibition. Entry: N#CCCN(C(=O)Nc1ccc(Cl)cc1)c1ccccc1
-2.1

Requested read-out: inhibition. Entry: Nc1nnc(SCc2cc3c(cc2Cl)OCO3)s1
7.6

Requested read-out: inhibition. Entry: C=CCN(C(=O)CNC(=O)c1ccco1)C(C(=O)NC1CCCCC1)c1ccccc1F (stereo not drawn)
-1.6

----------
The following molecules are shown together with reported nuclei count values.
experiment notes: endothelial E-selectin expression blockers – imaging, HUVEC, immunofluorescence, MLSMR starter and 10KST1 sets, primary screen (AID 487);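 for nuclei count: 100% = median nuclei count of all wells on the same plate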
experimental parameters: HUVEC TNFalpha-induced E-selectin immunofluorescence imaging, at 2 µM; measured here: cell number, toxicity
Express the result in % but write the number alone.

[[record]]
molecule = "COC(=O)C(C)Sc1nc2c(c(=O)n1-c1ccccc1)SCC2 (configuration not stated)"
measured_value = 150

[[record]]
molecule = "CCCCCn1c(CN2CCN(C(=O)OCC)CC2)nc2c1c(=O)[nH]c(=O)n2C"
measured_value = 78.3

[[record]]
molecule = "O=C(c1cnn2c(C(F)(F)F)cc(-c3ccco3)nc12)N1CCc2ccccc2C1"
measured_value = 67

[[record]]
molecule = "CCOC(=O)c1[nH]c(CSc2nnc(-c3ccncc3)n2CCOC)c(C(=O)OCC)c1C"
measured_value = 127

[[record]]
molecule = "CCOc1cccc(C(=O)N(Cc2ccco2)C2CCS(=O)(=O)C2)c1 (configuration not stated)"
measured_value = 110

[[record]]
molecule = "COc1ccc(C/C(N)=N/n2cnnc2)cc1Cl"
measured_value = 107

[[record]]
molecule = "CN(C)CCCn1c(N)c(C#N)c2nc(C#N)c(C#N)nc21"
measured_value = 106

[[record]]
molecule = "CCOC(=O)c1cc2cc(F)ccc2nc1C"
measured_value = 118


Requested read-out: nuclei count. Entry: COc1ccc(-c2noc(COc3ccc(C)c(C)c3)n2)cc1OC
108

Requested read-out: nuclei count. Entry: CCCCn1c(NCCC)nc2c1c(=O)[nH]c(=O)n2C
124

Requested read-out: nuclei count. Entry: O=c1[nH]c(/C(=N\O)c2ccccc2)no1
111

Requested read-out: nuclei count. Entry: CCN(CC)S(=O)(=O)c1ccc(F)cc1
114

----------
experiment notes: inhibitors of TNFa-induced NFkB p65 translocation, primary screen, imaging, HUVEC, MLSMR starter and 10KST1 sets (AID 438);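 note: compound added about 3h40 before a 20 min TNFalpha stimulation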
experimental parameters: HUVEC TNFa-induced p65 nuclear translocation; measured here: nuclei count (cytotoxicity indicator), at 2.08 µM
Decision: cell count compared against 600; not below it gives condition met, below it gives condition not met.

Evaluate Cn1nc(C(=O)N2CCOCC2)c2ccccc2c1=O : cell count at minimum 600?
condition not met

----------
experiment notes: endothelial E-selectin expression blockers – imaging, HUVEC, immunofluorescence, MLSMR starter and 10KST1 sets, primary screen (AID 487);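 for inhibition: signal is fraction of cell area covered by stained E-selectin grains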
experimental parameters: HUVEC TNFalpha-induced E-selectin immunofluorescence imaging, at 2 µM; stronger effect = higher value
quantity name: inhibition (%)
Express the result in % but write the number alone.

[[record]]
structure_as_smiles = "CCOC(=O)c1ccc(NC(=O)COc2ccc(-n3cnnn3)cc2)cc1"
measured_value = 5

[[record]]
structure_as_smiles = "O=c1[nH]c(SCc2ccc(F)cc2)nc2c1cnn2-c1ccc(F)cc1"
measured_value = -0.1

[[record]]
structure_as_smiles = "Cn1cnc2cc(NC(=O)c3ccc(Cl)cc3)ccc21"
measured_value = 3.1

[[record]]
structure_as_smiles = "COc1ccc(CCNC(=O)c2cnc3scc(C)n3c2=O)cc1OC"
measured_value = 19.7

[[record]]
structure_as_smiles = "Cc1ccc(OCCN2CCN(C(=O)CCC(=O)Nc3nnc(C)s3)CC2)cc1"
measured_value = -18.9


Shift focus to the following entry.
Requested read-out: inhibition. Entry: Cc1cc(C)n(S(=O)(=O)c2cc(C(=O)O)c(Cl)cc2Cl)n1
-83.9

From: PubChem BioAssay
